- PROTOCOL DESCRIPTION: yeast display, Sf9 membrane polyspecificity reagent, FACS + sequencing; frameworks hold sequencing errors
MEASUREMENT NAME: polyreactivity (PSR sort gate)

Examples from the recorded data:
INSERT INTO assay_data (seq_string, result) VALUES
  ('QVQLVESGGGLVQAGGSLRLSCAASGFIFYRYAMGWYRQAPGKERELVATIRYSGGSTYYADSVKGRFTISRDNAKNTVYLQMNSLKPEDTAVYYCNARRRHPSVSRPPYDYWGQGTQVTVSS', 'high polyreactivity'),
  ('QVQLVESGGGLVQAGGSLRLSCAASGSTYGRNARGWYRQAPGKERELVAAISSGGRTYYADSVKGRFTISRDNAKNTVYLQMNSLKPEDTAVYYCARDDYGTLVQLYGRGFNYWGQGTQVTVSS', 'low polyreactivity'),
  ('QVQLVESGGGLVQAGGSLRLSCAASGRIFTLYDMGWYRQAPGKERELVAAISNSAGSTYYADSVKGRFTISRDNAKNTVYLQMNSLKPEDTAVYYCAAELWSWWGSRDYWGQGTQVTVSS', 'high polyreactivity'),
  ('QVQLVESGGGLVQAGGSLRLSCAASGSTFLYNAMGWYRQAPGKERELVATISSGGGSTNYADSVKGRFTISRDNAKNTVYLQMNSLKPEDTAVYYCAVEGYDSYKDDYWGQGTQVTVSS', 'low polyreactivity'),
  ('QVQLVESGGGLVQAGGSLRLSCAASGRIFSAYAMGWYRQAPGKERELVAAITSVGSTKYADSVKGLFTISRDNAKNTVYLQMNSLKPEDTAVYYCAAEYTRSFYIYYRFGYWGQGTQVTVSS', 'high polyreactivity'),
  ('QVQLVESGGGLVQAGGSGRLSCAASGSILPSYAMGWYRQAPGKERELVAAISRRGGSTYYADSVKGRFSISRDNAKNTVYLQMNSLKPEDTAVYYCAAGSYSGYDYWGQGTQVTVSS', 'low polyreactivity'),
  ('QVQLVESGGGLVQAGGSLRLSCAASGRIFWFYTMGWYRQAPGKERELVAAISTSGGSTYYADSVKGRFTISRDNAKNTVYLQMNSLKPEDTAVYYCAAQNGYYPQHDYWGQGTQVTVSS', 'high polyreactivity'),
  ('QVQLVESGGGLVQAGGSLRLSCAASGRTQSRYTMGWYRQAPGKERELVAAISTSGSTYYADSVKGRFTISRDNAKNTVYLQMNSLKPEDTAVYYCNAVRRYLQYATGYDYWGQGTQVTVSS', 'high polyreactivity');

For the sequence shown here, "QVQLVESGGGLVQAGGSLRLSCAASGSIFQHYAMGWYRQAPGKVRELVAAISSDTTSTYYADSVKGRFTISRDNAKNTVYLQMHSLKPEDTAVYYCNTYPEVYGPFQYDYWGQGTQVTVSS" , give the reported polyreactivity (PSR sort gate).
low polyreactivity

Entry to check: "QVQLVESGGGLVQAGGSLRLSCAASGRIFPFYVMGWYRQAPGKERELVATINWSGGSTYYADSVKGRFTISRDNAKNTVYLQMNSLKPEDNAVYYCNAAPSDDYDYWGQGTQVTVSS"
low polyreactivity

Entry to check: "QVQLVESGGGLVQAGGSLRLSCAASGSIFGYYAMGWYRQAPGKERELVAAISGSGGSTYYADSVKGRFTISRDNAKYTVYLQMNRLKPEDTAVYYCAAAYHGRHYYWGQGTQVTVSS"
high polyreactivity

Entry to check: "QVQLVESGGGIVQAGGSLRLSCAASGRIFYRYDMGWYSQARGKERELVAAINDGGSTYYADSVKGRFTISRDNAKNTVYLQMNSLKPEDTAVYYCKVVNEHQSDFVVPFDYNHWGQGTQVTVSS"
low polyreactivity

Entry to check: "QVQLVESGGGLVQAGGSLRLSCAASGFIFEMYAMGWYRQAHGKERELVAAISSSGDSTYYADSVKGRFTISRDNEKNTVYLQMNSLIPEDNAVYYCATECGYALYDYWGQGTQVTVSS"
low polyreactivity

Entry to check: "QVQLVESGGGLVQAGGSLRLSCAASGSTFAYYVMGWYRQAPGKERELVAAITSSGGRTYYADSVKGRFTISRDNAKNTVYLQMNSQKPEDTAVYYCAKVSQRRVDNSDYDYWGQGTQVTVSS"
high polyreactivity

Entry to check: "QVQLVESGGGLVQAGGSLRLSCAASGSTFPPNAMGWYRQAPGKERELVADSSDSSTYYADSVKGRFTISRDNAKNTVYLQMNSLKPEDNAVYYCAAADAGLRSKSYGQQYDYWGQGTQVTVSS"
low polyreactivity

Entry to check: "QVQLVESGGGLVQAGGSLRLSCAASGGTFSPYAMGWYRQAPGKERELVAVIRSDVTTNYADSVKGRFTISRDNAKNTVYLQMNSLKPEDTAVYYCAVQYLGYGGLFPLDYWGQGTQVTVSS"
low polyreactivity

Entry to check: "QVQLVESGGGLVQAGGSLRLSCAASGRIFYFNAKGGYRQAPGKERELVAAIRNDTRTYYADSVKGRFTISRDNAKNTVYLQLNSLKPEDTAVYYCAARVYFSVITPIKYNYWGQGTQVTVSS"
high polyreactivity

Entry to check: "QVQLVESGGGLVQAGGSLRLSCAASGNIFDSYAMGWYRQAPGKERELVAAISFSGGNTYYADSVKGRFTISRDNAKNTVYLQMNSLKPEDTAVYYCAADYFAVTPYRAADVAEDYWGQGTQVTVSS"
low polyreactivity

Entry to check: "QVQLVETGGGLVQAGGSLSLSCAASGSILDLNAMGWYRQAPGKERELVAAISSGGGTYYADSVKGRFTISRDNAKNTVYLQMNSLKPEDTAVYYCNRVTRWTYNYWGQGTQVTVSS"
high polyreactivity

Entry to check: "QVQLVESGGGLVQAGGSLRLSCAASGRTFTRYAMGWYRQAPGKERELVATINSSGDRTYYADSVKGRFTISRDNAKNTVYLQMNSLKPEDTAVYYCAKRWSPYLYGYWGQGTQVTVSS"
high polyreactivity

Entry to check: "QVQLVESGGGLVQAGGSLRLSCAASGRTSLAYAMGWYRQAPGKERELVAGITSGGNTNYADSVKGRFTISCDNAKNTVYLQMNSLKPEDTAVYSCNKKKRWQWYSESVLDYLGFYSWGQGTQVTVSS"
low polyreactivity

====

- PROTOCOL DESCRIPTION: yeast display, Sf9 membrane polyspecificity reagent, FACS + sequencing; frameworks hold sequencing errors
MEASUREMENT NAME: polyreactivity (PSR sort gate)

INSERT INTO measurements (seq_string, measurement_name, result) VALUES
  ('QVQLVESGGGLVQAGGSLSLSCAASGRILYSYAMGWYRQAPGKERELVASISLSGGRTYADSVKGRFTISRDNAKNTVYLQMNSLKPEDTAVYYCNARIRTSRYLWPFDYWGQGTQVTVSS', 'polyreactivity (PSR sort gate)', 'high polyreactivity'),
  ('QVQLVESVGGLVQAGGSLRIICAASGSIFTDNAMGWYRQAPGTERELVAAISRSGGNTYYADSVKGRFTISRDNAKNTVYLQMNSLKPEDTAVYYCAARQKGTGNYWGQGTQVTVSS', 'polyreactivity (PSR sort gate)', 'high polyreactivity'),
  ('QVQLVESVGGLVQAGGSLRLSCAASGRTFSRFAMGWYRKAPGKERELVAAISYSGGRTYYADSVKGRFTISRDNAKNTVYLQMNSLKPEDTAVYYCAASWPGDTVDYDYWGQGTQVTVSS', 'polyreactivity (PSR sort gate)', 'high polyreactivity');

====

- PROTOCOL DESCRIPTION: yeast display, Sf9 membrane polyspecificity reagent, FACS + sequencing; frameworks hold sequencing errors
MEASUREMENT NAME: polyreactivity (PSR sort gate)

Examples from the recorded data:
INSERT INTO measurements (seq_string, measurement_name, result) VALUES
  ('QVQLVESGGGLVQAGGSLRLSCAASGRIFYPYAMGWYRQAPGKERELVALISWGGGSTYYADSVKGRFTISRDNAKNTVYLQMNSLKPEDTAVYYCAASYVGYWYRRGYGYWGQGTQVTVSS', 'polyreactivity (PSR sort gate)', 'high polyreactivity'),
  ('QVQLVESGGGLVQAGGSLRLSCAASGSTFQRYAMGWYRQAPGKERELVAVITNGGSTKYADSVKGRFTISRDNAKNTVYLQMNSLKPEDTAVYYCAAGLRSWSTGLWYGYWGQGTQVTVSS', 'polyreactivity (PSR sort gate)', 'high polyreactivity'),
  ('QDQLVESGGGLVQAGGSLRLSCAASGITFFVYDMGWYRQAPGTERELVAAITWSGDSTYYADSVKGRFTISRDNAKNTVYLQMNSLKPEDTAVYYCAAQFDVYYSRQPYDYNRSGYWGQGTQVTVSS', 'polyreactivity (PSR sort gate)', 'low polyreactivity'),
  ('QVQLVESGGGLVQAGGSLSLSCPASGFTFPPYTMGWSRQAPGKEREFVATITKSGGSTYYADSVKGRFTISRDNAKNTVYLQMNSLKPEDTAVYYCNVVWQYSTYVRYNYWGQGTQVTVSS', 'polyreactivity (PSR sort gate)', 'low polyreactivity'),
  ('QVQLVESGGGLVQAGGSLRLSCAASGSIFTGNAMGWYRQAPGKERELVASSTTTTDSTYYADSVKGRFTISRDNAKNTVYLQMNSLKPEDTAVYYCAAEYAVAWKYGLYFYFHFDYWGQGTQVTVSS', 'polyreactivity (PSR sort gate)', 'low polyreactivity'),
  ('QVQLVESGGGLVQAGGSLRLSCAASGIIFRYYAMGWYRQAPGKERELVAAISSSGVSTYYADSVKGRFTISRDNAKNNVYLQMNSLKPEDTAVYYCAAVTTWRMDYWGQGTQVNVSS', 'polyreactivity (PSR sort gate)', 'high polyreactivity');

For the sequence shown here, "QVQLVESGGGVVQAGGSLRFSCAASGRTFVVNAMGWYREAPGKERELVAAITRRGGITYYADSVKGRFTISRDNAKNSVYLQMNSLTPEDTAVYYCAADRSYYPDTRTTYGYNYWGQGTQVTVSS" , give the reported polyreactivity (PSR sort gate).
low polyreactivity

Entry to check: "QVQLVESGGGLVQAGGSLRLSCAASGFTLYVYDMGWYRQAHGKERELVAAINGGGSTNYADSVKGRFTISRDNAKNTVYLQMNSLKPEDTAVYYCAAEDAYGRDVYYGSDYWGQGTLVTVSS"
low polyreactivity

Entry to check: "QVQLVESGGGLVQAGGSLRLSCAASGFIFQSYAMGWYRQAPGKERELVASISASGGSTYYADSVKGRFTISRDNAKNTVYLQMNSLKPEDTAVYYCAAGYWSYWSLRMDYWGQGTQVTVSS"
high polyreactivity

Entry to check: "QVQLVESGGGLVQAGGSLRLSCAASGSTFTYYAMGWYRQAPGKERELVAAITSSGSTNYADSVKGRFTISRDNAKNTVYLQMNSLKPEDTAVYYCNAVSKWAIYDYWGQGTQVTVSS"
high polyreactivity

Entry to check: "QVQLVESGGVLVQAGGSLRLSCAASVFIFPYYAMGRYRQEPGKEMELVAAISSGGITNYADSVKGRFTISRDNSKNTVYLQMNSLKPEDTAVYYCAAKRRVGNFRYGYWGQGTQVTVSS"
high polyreactivity
